# measured-on: hERα (Homo sapiens)
# Construct: relative to the wt LBD and to both α and β full-length ER
# protocol-summary: binding to full-length hERα
readout-type: IC50 (nM)
Numbers only, in nM.

Answered cases to consult:
| compound | IC50, nM |
| --- | --- |
| CC1=C2c3ccc(O)cc3CC2(Cc2ccccc2)CCC1=O (stereo not drawn) [CMP4] | 1470 |
| O=C1CCC2(Cc3ccccc3)Cc3cc(O)ccc3C2=C1c1ccc(OCCN2CCCCC2)cc1 (stereo not drawn) [CMP10] | 375 |

Task item: With hERα (Homo sapiens) as the test system, provide measured IC50 for this compound: O=C1CCC2(Cc3ccccc3)Cc3cc(O)ccc3C2=C1c1ccc(O)cc1 (stereo not drawn) [CMP6]
Reply: 223

###

# measured-on: hERβ (Homo sapiens, UniProt Q92731)
# Sequence (Q92731 whole entry): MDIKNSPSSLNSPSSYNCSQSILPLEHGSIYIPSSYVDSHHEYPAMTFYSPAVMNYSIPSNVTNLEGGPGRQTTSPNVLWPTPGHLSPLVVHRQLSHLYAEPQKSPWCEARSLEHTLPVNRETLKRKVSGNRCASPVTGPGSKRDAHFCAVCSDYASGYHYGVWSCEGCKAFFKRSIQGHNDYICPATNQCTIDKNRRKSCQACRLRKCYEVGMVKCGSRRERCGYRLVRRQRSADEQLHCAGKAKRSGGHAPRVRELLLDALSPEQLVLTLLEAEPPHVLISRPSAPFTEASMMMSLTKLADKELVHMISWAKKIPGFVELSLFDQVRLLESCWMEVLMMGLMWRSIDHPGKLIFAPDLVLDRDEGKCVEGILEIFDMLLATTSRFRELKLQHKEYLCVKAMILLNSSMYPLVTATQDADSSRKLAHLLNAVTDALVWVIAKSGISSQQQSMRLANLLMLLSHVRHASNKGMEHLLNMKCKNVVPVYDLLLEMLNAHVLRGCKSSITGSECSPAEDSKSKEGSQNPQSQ
# protocol-summary: binding to full-length hERβ
# condition-label: full-length receptor
pIC50: −log10 of the molar value.
Classification field: enter Yes for pIC50 values not below 6, No for values below it.

Task item: Check the entry CC1=C2c3ccc(O)cc3CC2(Cc2ccccc2)CCC1=O (centres unmarked) [CMP4] : does pIC50 equal or exceed 6?
Reply: Yes

Task item: Check the entry O=C1CCC2(Cc3ccc(Cl)cc3)Cc3cc(O)ccc3C2=C1c1ccc(OCCN2CCCCC2)cc1 (centres unmarked) [CMP8] : does pIC50 equal or exceed 6?
Reply: No

Task item: Check the entry CC1=C2c3ccc4[nH]ncc4c3CC2(Cc2ccccc2F)CCC1=O (centres unmarked) [CMP27] : does pIC50 equal or exceed 6?
Reply: Yes

Task item: Check the entry O=C1CCC2(Cc3ccccc3)Cc3cc(O)ccc3C2=C1c1ccncc1 (centres unmarked) [CMP15] : does pIC50 equal or exceed 6?
Reply: Yes

###

# measured-on: GST-ERα wt-LBD (Homo sapiens, UniProt P03372)
# Construct: made in house; host or cells: E. coli BL21 (CodonPlus DE3-RIL)
# protocol-summary: competitive radiometric 3[H]E2 displacement binding assay, wt LBD
Answer each item with its documented pIC50.
Answers are plain numbers, as −log10 of the molar value.

Consider the following items and state reported pIC50 for each.
1. O=C1CCC2(Cc3ccccc3)Cc3cc(O)ccc3C2=C1c1ccc(OCCN2CCCCC2)cc1 (stereo not drawn)
2. O=C1CCC2(Cc3ccccc3)Cc3cc(O)ccc3C2=C1c1ccc(OCCN2CCOCC2)cc1 (stereo not drawn)
3. O=C1CCC2(Cc3ccccc3)Cc3cc(O)ccc3C2=C1c1ccc(O)cc1 (stereo not drawn)

Reply:
1. 5.90
2. 5.64
3. 5.86

###

# measured-on: GST-ERα wt-LBD (Homo sapiens, UniProt P03372)
# Construct: made in house; host or cells: E. coli BL21 (CodonPlus DE3-RIL)
# protocol-summary: competitive radiometric 3[H]E2 displacement binding assay, wt LBD
# condition-label: 3[H]E2 displacement; read-out: GST-ERα wt-LBD IC50
readout-type: IC50 (µM)
Answers are plain numbers, in µM.

Answered cases to consult:
| compound | measured-on | unit-info | IC50 |
| --- | --- | --- | --- |
| CCCCC1=C2c3ccc(O)cc3CC2(Cc2ccccc2)CCC1=O (stereo not shown) | GST-ERα wt-LBD (Homo sapiens, UniProt P03372) | µM | 1.31 |
| CN(C)CCOc1ccc(C2=C3c4ccc(O)cc4CC3(Cc3ccccc3)CCC2=O)cc1 (stereo not shown) | GST-ERα wt-LBD (Homo sapiens, UniProt P03372) | µM | 4.17 |

Consider the following items and state reported IC50 for each.
1. CC1=C2c3ccc(O)cc3CC2(Cc2ccc(Cl)cc2)CCC1=O (stereo not shown)
2. O=C1CCC2(Cc3ccccc3)Cc3cc(O)ccc3C2=C1c1ccncc1 (stereo not shown)
3. CC1=C2c3ccc(O)cc3CC2(Cc2ccccc2)CCC1=O (stereo not shown)

Reply:
6.83
0.725
2.32

Task item: Identify measured IC50 associated with O=C1CCC2(Cc3ccc(Cl)cc3)Cc3cc(O)ccc3C2=C1c1ccc(OCCN2CCCCC2)cc1 (stereo not shown)
Reply: 4.44

###

# measured-on: hERα (Homo sapiens, UniProt P03372)
# Construct: relative to the wt LBD and to both α and β full-length ER
# Sequence (P03372 whole entry, the tested form may be a part): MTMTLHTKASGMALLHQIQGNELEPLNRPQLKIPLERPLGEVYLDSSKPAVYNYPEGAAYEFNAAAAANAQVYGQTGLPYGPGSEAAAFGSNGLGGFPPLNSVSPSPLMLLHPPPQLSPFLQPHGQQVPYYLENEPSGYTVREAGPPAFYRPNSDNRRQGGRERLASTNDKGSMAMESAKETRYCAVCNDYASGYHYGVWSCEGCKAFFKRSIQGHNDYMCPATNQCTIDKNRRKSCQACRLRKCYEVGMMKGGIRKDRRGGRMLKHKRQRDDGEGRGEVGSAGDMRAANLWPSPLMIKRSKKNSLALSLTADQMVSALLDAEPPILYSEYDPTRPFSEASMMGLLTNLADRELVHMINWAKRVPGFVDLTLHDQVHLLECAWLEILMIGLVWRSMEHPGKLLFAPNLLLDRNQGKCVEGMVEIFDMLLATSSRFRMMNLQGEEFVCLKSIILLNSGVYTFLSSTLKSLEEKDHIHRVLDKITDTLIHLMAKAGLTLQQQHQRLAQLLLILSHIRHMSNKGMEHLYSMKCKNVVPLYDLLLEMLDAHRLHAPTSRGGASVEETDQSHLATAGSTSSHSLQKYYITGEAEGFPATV
# protocol-summary: binding to full-length hERα
# condition-label: full-length receptor; read-out: hERα IC50
readout-type: IC50 (nM)
Answers are plain numbers, in nM.

Answered cases to consult:
| molecule | measured-on | unit-info | IC50 |
| --- | --- | --- | --- |
| CC1=C2c3ccc4[nH]ncc4c3CC2(Cc2ccccc2F)CCC1=O (stereo not drawn) [CMP27] | hERα (Homo sapiens, UniProt P03372) | nM | 4300 |
| O=C1CCC2(Cc3ccc(Cl)cc3)Cc3cc(O)ccc3C2=C1c1ccc(OCCN2CCCCC2)cc1 (stereo not drawn) [CMP8] | hERα (Homo sapiens, UniProt P03372) | nM | 1080 |
| CCCCC1=C2c3ccc(O)cc3CC2(Cc2ccccc2)CCC1=O (stereo not drawn) [CMP7] | hERα (Homo sapiens, UniProt P03372) | nM | 259 |

Now turn to the next molecule.
Task item: Identify measured IC50 associated with O=C1CCC2(Cc3ccccc3)Cc3cc(O)ccc3C2=C1c1ccncc1 (stereo not drawn) [CMP15]
Reply: 1180

###

# measured-on: GST-ERα wt-LBD (Homo sapiens, UniProt P03372)
# Construct: made in house; host or cells: E. coli BL21 (CodonPlus DE3-RIL)
# protocol-summary: competitive radiometric 3[H]E2 displacement binding assay, wt LBD
# condition-label: 3[H]E2 displacement; read-out: GST-ERα wt-LBD IC50
readout-type: IC50

Answered cases to consult:
| molecule | IC50 |
| --- | --- |
| CC1=C2c3cc(Br)c(O)c(Br)c3CC2(Cc2ccccc2)CCC1=O (stereo not shown) [CMP24] | > 180 µM |
| O=C1CCC2(Cc3ccccc3)Cc3cc(O)ccc3C2=C1c1cccnc1 (stereo not shown) [CMP14] | > 3.6 µM |
| CC1=C2c3ccc4[nH]ncc4c3CC2(Cc2ccccc2)CCC1=O (stereo not shown) [CMP5] | > 10 µM |

Now turn to the next molecule.
Task item: Identify measured IC50 associated with O=C1CCC2(Cc3ccccc3)Cc3cc(O)ccc3C2=C1c1ccccn1 (stereo not shown) [CMP13]
Reply: > 3.6 µM
